system: Rats Washed Platelet; experiment: in vitro rat washed platelet aggregation test (collagen-induced); type: cell-based, rat (Sprague-Dowley); conditions: 0.05 h, inducer collagen 4 μg/ml, 37° C., 3 minutes after inducer, read-out: 50% Inhibitory Concentration (IC50), Inhibition of Aggregation for Rats Washed Platelet
reported.endpoint: IC50 (nM)

1) CC1(C)[C@H]2C[C@H](C/C=C\CCCc3nnn[nH]3)[C@@H](NS(=O)(=O)c3ccc(Cl)cc3)[C@@H]1C2 [Iej-b] :: 7

[I] COc1ccc(S(=O)(=O)N[C@@H]2[C@@H](C/C=C\CCCc3nnn[nH]3)C[C@H]3C[C@@H]2C3(C)C)cc1 [Iee-b]
[II] CC1(C)[C@H]2C[C@H](C/C=C\CCCc3nnn[nH]3)[C@@H](NS(=O)(=O)c3ccc4ccccc4c3)[C@@H]1C2 [Iei-b]
[III] CC1(C)[C@H]2C[C@H](C/C=C\CCCc3nnn[nH]3)[C@@H](NS(=O)(=O)c3ccc(Br)cc3)[C@@H]1C2 [Iec-b]
Prompt: Sort the 3 molecules by IC50; largest first, smallest last. // list labels; follow requested order
Response: II, I, III

// provenance: patent US4916231A
